Where these numbers come from: patent US20260258115A1

Measured Kd, listed per entry.
Biological target: RSV prefusion F (preF), subtype A (respiratory syncytial virus, subtype A, UniProt P03420 26-513)
Assay: BLI, IgG
Give the value in nM but do not write nM after it.

Some solved cases for reference:
ADI-20970 (antibody, V domains shown) VH: EVQLLESGGGLVKPGGSLRLSCAVSGFSFSNAWMSWVRQAPGKGLEWVGRIRSKTDGGTTDYAAPVKGRFTISRDDSKNTLYLQMNSLKTEDTAVYYCTTAPRYSTSWYPGYYYYYYMDVWGKGTTVTVSS VL: DIQMTQSPSSLSASVGDRVTITCQASQDINFYLNWYQQKPGKAPKLLIYDASNLETGVPSRFSGSVSGTDFTFTISSLQPEDFATYYCQQYDDLPAFGGGTKVEIK = 1.83
ADI-21042 (antibody, V domains shown, also called Ab 290) VH: EVQLVESGPRLVKPSQTLSLTCNVSGVPVNTGGYYWSWIRRHPIKGLEWIGYIYYSGSTHYNPSLRGRATMSVDTSKNQFSLRLSSVTAADTAVYYCAKDTITVLRGVAKKGVFDPWGQGILVTVSS VL: DIQMTQSPSTLSASVGDRVIITCRASQSISSWLAWYQYKPGKAPNLLIYKATTLDSGVPSRFSGSGSGTEFTLTISSLQPDDFATYYCQQYDSYPTFGQGTKVEIK = 2.96

Please look up its Kd: ADI-21019 (antibody, V domains shown) VH: EVQLLESGGGLVRPGGSLRLSCAVSGFTFSGNALTWIRRAPGKGLEWVSTIGDSGGGSYYADSVKGRFTISRDNSKSTLYLQMNSLTAEDTAVYYCARDPYGDYRDYYGIDVWGQGTTVTVSS VL: EIVMTQSPLSLPVTPGEPASISCRSSQSLRHSNGYNYVDWYLQKPGQSPQLLIYLGSNRASGVPDRFRGSGSGTDFTLKISRVEAEDVGVYYCMQALQTPLTFGQGTKVEIK
0.182
